test system: human OX2R (Homo sapiens, UniProt O43614)
Construct: expressed in transfected cells; host or cells: CHO (Chinese hamster ovary) cells grown under G418 selection
Sequence (O43614 whole entry): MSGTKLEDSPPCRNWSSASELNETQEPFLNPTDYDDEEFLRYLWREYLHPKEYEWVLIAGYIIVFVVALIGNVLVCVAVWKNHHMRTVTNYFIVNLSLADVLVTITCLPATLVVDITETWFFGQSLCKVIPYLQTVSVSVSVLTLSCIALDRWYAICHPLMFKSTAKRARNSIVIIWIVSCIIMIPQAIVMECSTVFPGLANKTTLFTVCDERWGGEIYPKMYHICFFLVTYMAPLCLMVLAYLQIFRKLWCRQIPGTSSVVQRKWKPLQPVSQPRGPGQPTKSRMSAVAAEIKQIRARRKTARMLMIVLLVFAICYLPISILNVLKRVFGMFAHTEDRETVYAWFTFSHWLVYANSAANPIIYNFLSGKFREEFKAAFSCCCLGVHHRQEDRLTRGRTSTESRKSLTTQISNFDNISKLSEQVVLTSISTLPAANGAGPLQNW
protocol details: IPOne (IP-1 accumulation) assay in CHO cells expressing human OX2R
Type: cell-based
measurement setup: percent effect vs mean max effect of a reference compound at 1 uM (100% activity vs Orexin A), human OX2R
recorded endpoint: % of maximum agonist effect (relative to Orexin A) (%)

CCN(C(=O)N[C@@H](CCC(F)(F)F)C(F)(F)F)C(c1ncc(OC)c(-c2cn3ccnc3c(OC)n2)n1)C(F)(F)F (stereo partly shown)    100.7
CCN(C(=O)N[C@@H](CCC(F)(F)F)C(F)(F)F)[C@H](C)c1cccc(-c2ccc3ncc(N)n3c2)c1    96.7
CCC(CC(C)C(F)(F)F)NC(=O)N(CC)[C@H](C)c1cccc(-c2cn3ccnc3c(OC)n2)c1 (stereo partly shown)    100.6
CCC(NC(=O)N(CC)[C@@H](c1cc(-c2cn3cc(C)nc3c(OC)n2)c(OC)cn1)C(F)(F)F)C1CC1C(F)(F)F (stereo partly shown)    101.5
CCN(C(=O)NC(C)C1CCCC(F)(F)C1)[C@H](C)c1cccc(-c2cn3ccnc3c(OC)n2)c1 (stereo partly shown)    99.8
CCN(C(=O)NC(Cn1nccn1)C(F)(F)F)[C@H](C)c1cccc(-c2cn3ccnc3c(OC)n2)c1 (stereo partly shown)    100.1
CCc1cc(-c2cc([C@@H](C)N(CC)C(=O)N[C@@H](CCC(F)(F)F)C(F)(F)F)ncc2OC)cc2ccnn12    99.6

----------
test system: human OX2R (Homo sapiens, UniProt O43614)
Construct: expressed in transfected cells; host or cells: CHO (Chinese hamster ovary) cells grown under G418 selection
protocol details: IPOne (IP-1 accumulation) assay in CHO cells expressing human OX2R
Format: cell-based
measurement setup: percent effect vs mean max effect of a reference compound at 1 uM (100% activity vs Orexin A), human OX2R
recorded endpoint: % of maximum agonist effect (relative to Orexin A) (%)

C=Cc1ccc([C@@H](C)N(CC)C(=O)N[C@H](CC)CCC(F)(F)F)cc1-c1ccc2nccn2c1    94.9
CCN(C(=O)NC(CC(C)=O)C(F)(F)F)[C@@H](c1cc(-c2cn3ccnc3c(OC)n2)c(OC)cn1)C(F)(F)F (stereo partly drawn)    101.1
CCN(C(=O)NC(CC(=O)N(C)C)C(F)(F)F)[C@H](C)c1cccc(-c2cn3ccnc3c(OC)n2)c1 (single isomer, unassigned)    89.1

----------
test system: human OX2R (Homo sapiens, UniProt O43614)
Construct: expressed in transfected cells; host or cells: CHO (Chinese hamster ovary) cells grown under G418 selection
protocol details: IPOne (IP-1 accumulation) assay in CHO cells expressing human OX2R
Format: cell-based
measurement setup: percent effect vs mean max effect of a reference compound at 1 uM (100% activity vs Orexin A), human OX2R
recorded endpoint: % of maximum agonist effect (relative to Orexin A) (%)

CCN(C(=O)N[C@H](C)C1CCC(F)(F)CC1)[C@H](C)c1cccc(-c2cn3ccnc3c(OC)n2)c1    96.1
CCN(C(=O)NC(C(F)F)C1CC1)[C@@H](c1cc(-c2cn3ccnc3c(OC)n2)c(OC)cn1)C(F)(F)F (stereo partly drawn)    100.1
CCN(C(=O)NC(C)C(C)(F)F)[C@@H](c1cc(-c2cn3ccnc3c(OC)n2)c(OC)cn1)C(F)(F)F (stereo partly drawn)    99.3
CCC(CCC(F)(F)F)NC(=O)N(CC)[C@H](C)c1cccc(-c2cn3ccnc3cc2C)c1 (stereo partly drawn)    102.1
CCN(C(=O)N[C@@H](CCC(F)(F)F)C(F)(F)F)[C@H](C)c1cnc(O)c(-c2cc(OC)n3nccc3c2)c1    97.0
CCN(C(=O)N[C@@H](CCC(F)F)C1CC1)[C@@H](c1cc(-c2cn3cc(C)nc3c(OC)n2)c(OC)cn1)C(F)(F)F    100.9

Each recorded value in this set is attributed to patent US12692262B2.
